# Assay overview: yeast display, Sf9 membrane polyspecificity reagent, FACS + sequencing; frameworks hold sequencing errors
Measured parameter: polyreactivity (PSR sort gate)

Construct sequence	Measured parameter	Reported
QVQVVESGGGLVQAGGSLRLSCAASGSTFSWYAIGWYIQAPGKDRELVARISSGDRTNYADSVKGRFTITRDNAKNNVYLEMNSQKPEDTAVYYCNADYGQPSYYDDGDYWGQGTQVTVSS	polyreactivity (PSR sort gate)	low polyreactivity
QVQLVESGGGLVQAGGSLRLSCAASGSTFLVYALGWYRQAHGKEREFVAAISWSGGSTFYADSVKGRFTISRDNAKNTVYLQMNSLKPEDTAVYYCAARQAGYSGRKLYYWGQGTQVTVSS	polyreactivity (PSR sort gate)	low polyreactivity

====

# Assay overview: yeast display, Sf9 membrane polyspecificity reagent, FACS + sequencing; frameworks hold sequencing errors

Construct sequence	polyreactivity (PSR sort gate)
HVQLVESGGGLVQAGGSLRLSCAASGRTLYRNAMGWYRQAPGKERELVARITWSGASTYYADYVKGRFTISRDNAKNTVYLQMNSLKPEVTAVYYCAAQYLSRRYGPYYTYNYWGLGTQVTVSS	high polyreactivity
QVQLVESGGGLVQAGGSLRLSCAASGSTFWFNAMGGSRQAPGKERELVAAIPSRGGYTYYADSVKGRFTISRDHAKNTVYLQMNSLKPEDTAVYYCAADYRYSSRKVFHFDYWGQGTQVTVSS	low polyreactivity
QVQLVESGGGLVQAGGSLRLSCAASGFTFPRYAMGWYRQAPGKERELVAAITVGGGRTYYADSVKGRFTISRDNANNTVYLQMNSLKPEDTAVYYFAADSHASTYDYWGQGTQVTVSS	low polyreactivity
QVQLVESGGGLVQAGGSLRLSCAASGRIFHWYTMGWYRQAPGKEMELVAAISGSGGSTHYADSVKGRLTISRDNAKNTVYLQMNSLKPEDTAVYYCAAYIPVRYGTSDRGYWGQGTQVTVSS	low polyreactivity
QVQLVESGGGLVQAGGRLRLSCAASGSTFWGYTMGWYRQAPGKERELVAAISTIGGSTYYADSVKGRFTISRDNAKNTVYLQMNSLKTEDTAVYYCAAYKGKHYKEGYWGQGTQVTVSS	low polyreactivity
QVQIVESGGGFVQAGGSLRLSCAASGRIYGNTMGWYRQAHGKERELVAAITRSGVSTYYADSVKGRFTISRDNAKNTVYLQMNSLKPDDTAVYYCAAREWSGPKINPPYRYNSWGQGTQETVSS	high polyreactivity
QLQLVESGGGLVQAGASLRLSCADSRRIFDYNVMGRYIQAPGKEREVVADINGSGGGTNYEDSVKGRFTISRDNAKNTVYLQMNILKPEDTAVYYCNADSYEYHVPYYDYRYDYWGQGTQVTVSS	low polyreactivity
QFHLVESGGGLVQAGGSLRLSCAASGRIFSEYAMGWYRQAHGKEMELVASISTSGGSTYYADSVKGRFTISRDNAKNTVYLQKYSLKPEDTEVYYCNVAYYRYPSYTYGYDHWGQGTQVTVSS	high polyreactivity
QVKLVESGGGLVQAGGSLRLSCAASGSIFTYTIGWYRQAPGKESELVAVISRSGGRTYYADSVKGRFTISRDNAKNTVYLQMNSLKPEDTAVYYCAAEYYVDYYRTSRSFTRWRYEYWGQGTQVTVSS	high polyreactivity
QVQLVESGGGLVQAGGSLRLSCAASGFTFRYYAMGWYRQAPGKERELVAAISSGGSTYYADSVKGRFTISRDNAKNTVYLQMNSLKPEDTAVYYCATYLAEYGYWGQGTQVTVSS	high polyreactivity
QVQLVESGGGLVQAGGSLRLSCAASGSIFGPYAMGWYRQAPGKERELVAVISKRGGSTYYADSVKGRFTISRDNAKNTVYLQMNSLKPEDTAVYYCAADYDWDPYRIYYLASYDYWGQGTQVTVSS	high polyreactivity
QVQLVESGGGLVQAGGSLRLSCAASGRTFSLNAMGWYRQAPGKERELVAAINRGGTTYYADSVKGRFTISRDNAKNTVYVQMNSLKPEDTAVYYCAARYISSYDWGQGTQVTVSS	high polyreactivity
QVQLVESGGGLVQAGGSLRLSCAASGFTFTDYTMGWYIQAPGTEREFVAAISYRGSNTYYADSVKGRFTISRDNAKNTVYLQMNSLKPLDTAVYYCAADSYRYKYNYWGQGTQVTVSS	high polyreactivity
QVHLVESGGGLVQAGGSLRLSCSASGSTFNTYAMGWYRQAPGKERELVAAITRGGGGTYYADSVKGRFTISRDNAKNTVYLQMNSLKPEDTAVYYCADKFRYSKYGYWGQGTQVTVSS	high polyreactivity
QVQLVESGGGLVQAGGSLRLSCAASGRIFYLYAMGWYRQAPGKERELVAAITWSGGSTTYADSVKGRFTISRDNAKNTVYLQMNSLKPEDTAVYYCNADGWIFPSFSPMDYWGQGTQVTVSS	low polyreactivity
QVQLEESGGGLVQAGGSLRLSCAASGRTIQDNAMGWYRQAHGKERELVAAIRDNGGSTYYADSVKGRFTISRDNAKNTVFLQMNSLKPEDTAVYYCAADQGTGSYDYWGQGTQVTVSS	low polyreactivity
QVQLVESGGGLVQAGGSLRLSCAASGRTFHGYAMGWYRQAPGKERELVAAITSSGARTYYADSVKGRFTISRDNAKNTVFLQMNILKPEDSAVYYCAVNWLRGMDWGQGTQVTVSS	high polyreactivity
QVQLVESGGGLVQAGGSLRLSCAASGRTLASYGMGWYRQAPGKERELVAAISSRGGTTYYADSVKGRFTISRDNAKNTVYLQMNSLKPEDTAVYYCAKPGRYWGQGTQVTVSS	high polyreactivity
QVQLVESGGGLVQAGGSLRLSCAASGSIFPRNAMGWYRQAPGKERELVAAISWRGGRTYYADSVKGRFTISRDNAKKTVYLQMNSLNPEDTAVYYCSEQYSRWKRGEYYLSSSYGYWGQGTQVTVSS	high polyreactivity
QGQLVESGGGLVQAGGSLRLSCAASGGIFLGNAMGWYRQAPGKERELVASITRGGDTSYADSVKGRFTISRDNAKNTVYLQMNCLKPEDTAVYYCNADYYSVVEYDYWGQGTQLTVSS	low polyreactivity
QVQLVESGGGLVQAGGSLRLSCAASGSTFVGYAMGWYRQAPGKERELVAGITASGTNTYYADSVKGRFTISRDNAKNTVYLQMNSLKPEDTAVYYCAAESNRRFEGEYWGQGTQVTVSS	high polyreactivity

This collection of values is drawn from the nanobody polyreactivity screen of Harvey et al. (2022).
